- target.of.assay: α4β1 integrin (Homo sapiens (Human), UniProt P05556+P13612)
- Sequence (P13612 34-1032): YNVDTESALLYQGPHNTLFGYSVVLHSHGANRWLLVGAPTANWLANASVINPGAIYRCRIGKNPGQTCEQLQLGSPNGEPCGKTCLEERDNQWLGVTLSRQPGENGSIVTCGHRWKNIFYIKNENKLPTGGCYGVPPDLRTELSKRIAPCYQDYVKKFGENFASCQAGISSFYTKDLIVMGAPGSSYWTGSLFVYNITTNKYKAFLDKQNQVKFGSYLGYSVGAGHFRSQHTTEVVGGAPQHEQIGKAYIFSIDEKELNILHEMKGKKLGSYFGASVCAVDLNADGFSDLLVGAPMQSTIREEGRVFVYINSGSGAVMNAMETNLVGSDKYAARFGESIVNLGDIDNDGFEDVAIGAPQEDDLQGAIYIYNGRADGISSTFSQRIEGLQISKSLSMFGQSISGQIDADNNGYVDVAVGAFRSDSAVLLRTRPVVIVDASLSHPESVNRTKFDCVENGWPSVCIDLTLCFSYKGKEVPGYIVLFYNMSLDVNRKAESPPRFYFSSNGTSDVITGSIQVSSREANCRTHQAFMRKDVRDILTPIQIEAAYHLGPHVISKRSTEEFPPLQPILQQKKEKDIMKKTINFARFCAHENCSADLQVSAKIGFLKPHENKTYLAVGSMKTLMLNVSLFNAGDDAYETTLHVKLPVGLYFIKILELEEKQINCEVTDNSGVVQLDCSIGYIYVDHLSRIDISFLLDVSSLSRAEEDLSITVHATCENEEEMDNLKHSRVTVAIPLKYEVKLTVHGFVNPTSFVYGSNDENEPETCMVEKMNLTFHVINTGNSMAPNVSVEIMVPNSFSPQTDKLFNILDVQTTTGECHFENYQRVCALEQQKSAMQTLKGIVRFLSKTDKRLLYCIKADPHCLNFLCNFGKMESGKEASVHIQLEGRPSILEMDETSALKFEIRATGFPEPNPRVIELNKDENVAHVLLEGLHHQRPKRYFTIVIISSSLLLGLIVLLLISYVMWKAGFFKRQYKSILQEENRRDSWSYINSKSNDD
- Sequence (P05556 21-798): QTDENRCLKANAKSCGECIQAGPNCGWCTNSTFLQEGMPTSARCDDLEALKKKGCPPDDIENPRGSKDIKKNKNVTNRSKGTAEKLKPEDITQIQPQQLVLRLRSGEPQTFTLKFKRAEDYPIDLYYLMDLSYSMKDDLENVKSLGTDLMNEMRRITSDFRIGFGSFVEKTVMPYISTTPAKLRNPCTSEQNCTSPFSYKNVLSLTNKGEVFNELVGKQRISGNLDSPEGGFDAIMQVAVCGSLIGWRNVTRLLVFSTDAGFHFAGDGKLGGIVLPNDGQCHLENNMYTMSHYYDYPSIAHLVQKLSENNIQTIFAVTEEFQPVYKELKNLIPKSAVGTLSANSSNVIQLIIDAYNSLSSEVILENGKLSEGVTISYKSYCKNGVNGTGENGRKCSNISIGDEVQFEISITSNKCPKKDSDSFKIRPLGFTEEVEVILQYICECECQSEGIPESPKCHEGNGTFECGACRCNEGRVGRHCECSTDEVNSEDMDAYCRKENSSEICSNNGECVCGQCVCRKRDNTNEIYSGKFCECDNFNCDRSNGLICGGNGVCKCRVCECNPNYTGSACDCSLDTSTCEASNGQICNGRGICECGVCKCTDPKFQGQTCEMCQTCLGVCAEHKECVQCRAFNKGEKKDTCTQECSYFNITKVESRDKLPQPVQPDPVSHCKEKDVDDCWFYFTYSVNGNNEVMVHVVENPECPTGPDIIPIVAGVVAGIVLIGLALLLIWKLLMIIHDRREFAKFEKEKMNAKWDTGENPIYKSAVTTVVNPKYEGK
- assay.text: Integrin Adhesion Assay: Protocol 5 (VCAM-coated plate, RPMI-8866 cells with stable LOF mutation of the ITGB7 gene)
- Assay type: cell-based
- condition.set: RPMI-8866 cells with stable LOF mutation of the ITGB7 gene; read-out: Mean IC50 α4β1 KO^b
pIC50: −log10 of the molar value.
assay.metric: pIC50

# compound, result
records = [
    ("CN(C)c1ccc2c(c1)c(C(F)(F)F)c(-c1cccc3c(C[C@H](NC(=O)c4c(F)cc(N5CCOC[C@@H]5C(F)(F)F)cc4F)C(=O)O)cccc13)c(=O)n2C", "< 6.00"),
]

Entry under review: `O=C(O)[C@H](Cc1cccc2c(-c3cc(CN4CCC(F)(F)C4)cc4ccncc34)cccc12)NC(=O)C1(C(F)(F)F)CCN(C2COC2)CC1` . Reported pIC50? < 6.00

Here is the next compound: Cn1c(=O)c(-c2cccc3c(C[C@H](NC(=O)C4(C(F)(F)F)CCN(C5COC(C(F)(F)F)C5)CC4)C(=O)O)cccc23)c(C(F)(F)F)c2ccccc21 (stereo partly drawn) < 6.00

Here is the next compound: `COc1ccc2cccnc2c1-c1cccc2c(C[C@H](NC(=O)c3c(F)cccc3F)C(=O)O)cccc12` < 6.00

Here is the next compound: `Cn1c(=O)c(-c2cccc3c(C[C@H](NC(=O)C4(C(F)(F)F)CCN(C5CC(F)(F)C5)CC4)C(=O)O)cccc23)c(C(F)(F)F)c2ccccc21` 6.00 to 7.00

Here is the next compound: `COCCN1CCC(C(=O)N[C@@H](Cc2cccc3c(-c4c(C(F)(F)F)c5ccccc5n(C)c4=O)cccc23)C(=O)O)(C(F)(F)F)CC1` 6.00 to 7.00
